Test system: DMS-273
Test: NCI tumour cell line growth inhibition, 48 h
Calls of active or inactive are those of the source. Cut-off read from the data, not from the text of the source: active = GI50 up to about 1.1 µM and inactive = higher.
Mark one answer only. Choices: active, inactive

• O=C(c1ccccn1)c1nc(-c2ccc(Cl)c(Cl)c2)nc2ccc(Cl)cc12 = inactive
• O=C(Nc1ccc2[nH]c3c(-c4ccccc4)nccc3c2c1)c1ccccc1[N+](=O)[O-] = inactive
• ONc1ncnc2[nH]cnc12 = inactive
• CC1CCSC(N(C(=O)N(C)c2ccccc2)c2ccccc2)=N1 (configuration not stated) = inactive
• O=[N+]([O-])c1cccnc1S(=O)(=O)c1ccccc1 = inactive
• C/C(=C\CNc1ncnc2c1ncn2C1CCCCO1)COP(=O)(O)O (configuration not stated) = inactive
• COc1cc([C@@H]2c3cc4c(cc3[C@@H](NCCCN(C)C)[C@H]3COC(=O)[C@H]23)OCO4)cc(OC)c1O = active
• O=C(O)Cn1c(=O)[nH]c(=O)c2[nH]cnc21 = inactive
• Cc1ccc(NC(=O)CSc2nnc(-c3ccc(/N=C\c4ccc(Cl)cc4)cc3)o2)cc1 = inactive
• CC(C)OP(=S)(NC(=S)c1ccccc1)OC(C)C = inactive

Outcome logged for COC(=O)C(C(=O)C(=O)Nc1ccccc1OC)c1csc(-n2nc(-c3ccccc3)cc2-c2ccccc2)n1 (configuration not stated) in this assay: inactive

Which result was noted for this compound in the test: CSc1nnc2n1-c1ccccc1SCC2 inactive

Data provenance: ChEMBL document CHEMBL1201862
